- SYSTEM: human AChE (Homo sapiens, UniProt P22303)
- Construct: purchased Sigma-Aldrich
- Sequence (P22303 32-614): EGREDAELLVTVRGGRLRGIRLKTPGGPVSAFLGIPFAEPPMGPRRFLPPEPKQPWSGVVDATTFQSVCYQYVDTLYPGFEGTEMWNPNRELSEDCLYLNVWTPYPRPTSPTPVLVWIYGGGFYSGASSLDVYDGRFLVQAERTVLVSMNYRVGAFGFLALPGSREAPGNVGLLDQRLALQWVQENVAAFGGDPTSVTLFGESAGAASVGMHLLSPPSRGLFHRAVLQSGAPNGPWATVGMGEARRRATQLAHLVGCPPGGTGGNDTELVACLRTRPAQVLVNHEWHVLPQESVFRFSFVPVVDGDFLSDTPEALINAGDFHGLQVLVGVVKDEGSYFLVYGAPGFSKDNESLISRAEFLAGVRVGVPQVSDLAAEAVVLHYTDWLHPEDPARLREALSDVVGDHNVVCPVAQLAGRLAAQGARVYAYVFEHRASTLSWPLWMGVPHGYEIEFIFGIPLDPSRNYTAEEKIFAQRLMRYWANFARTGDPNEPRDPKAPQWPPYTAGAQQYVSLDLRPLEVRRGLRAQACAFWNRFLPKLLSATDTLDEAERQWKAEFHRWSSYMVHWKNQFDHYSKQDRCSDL
- ASSAY DETAILS: In vitro cholinesterase inhibition (Ellman), AChE
- Type: biochemical
- CONDITION PARAMETERS: IC50 AChE, Table 1; recombinant human AChE, 25 °C, pH 8.0

CPD SMILES | IC50 / pM
CC[N+](CC)(CCCCCn1c(=O)ccn(CCCCn2c(C)cc(=O)n(C)c2=O)c1=O)Cc1ccccc1C#N | 60

----------
- SYSTEM: human BuChE (Homo sapiens)
- Construct: butyrylcholiesterase from human plasma; purchased Sigma-Aldrich; host or cells: human plasma
- Sequence (P06276 29-602): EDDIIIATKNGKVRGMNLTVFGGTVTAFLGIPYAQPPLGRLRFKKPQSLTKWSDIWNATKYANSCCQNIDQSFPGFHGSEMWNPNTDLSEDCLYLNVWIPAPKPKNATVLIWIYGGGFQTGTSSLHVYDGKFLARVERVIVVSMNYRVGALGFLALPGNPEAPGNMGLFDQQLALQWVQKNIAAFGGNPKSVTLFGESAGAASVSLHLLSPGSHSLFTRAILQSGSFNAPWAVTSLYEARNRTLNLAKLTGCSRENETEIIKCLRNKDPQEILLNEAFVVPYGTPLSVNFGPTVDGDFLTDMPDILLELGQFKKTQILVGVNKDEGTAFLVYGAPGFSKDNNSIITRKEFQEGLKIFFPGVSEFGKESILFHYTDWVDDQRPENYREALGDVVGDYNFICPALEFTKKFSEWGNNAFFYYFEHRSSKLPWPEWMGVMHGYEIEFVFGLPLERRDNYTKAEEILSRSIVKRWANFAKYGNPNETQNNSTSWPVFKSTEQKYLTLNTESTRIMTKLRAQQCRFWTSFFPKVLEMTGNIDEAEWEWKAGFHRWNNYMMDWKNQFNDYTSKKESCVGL
- ASSAY DETAILS: Inhibition constants (Dixon and Cornish–Bowden plots), BuChE
- Type: biochemical
- CONDITION PARAMETERS: BuTCh as substrate; read-out: Kci (competitive inhibition constant), BuChE
pKi: −log10 of the molar value.
OUTCOME MEASURE: pKi

CPD SMILES | SYSTEM | OUTCOME MEASURE | NUMERIC VALUE
CCN(CCCCCn1c(=O)ccn(CCCCCn2c(C)cc(=O)n(C)c2=O)c1=O)Cc1ccccc1C#N | human BuChE (Homo sapiens) | pKi | 4.40

----------
- SYSTEM: human AChE (Homo sapiens, UniProt P22303)
- Construct: purchased Sigma-Aldrich
- ASSAY DETAILS: In vitro cholinesterase inhibition (Ellman), AChE
- Type: biochemical
- CONDITION PARAMETERS: Table 1; recombinant human AChE, 25 °C, pH 8.0; read-out: IC50 AChE
- Protocol: Inhibitory activities of the tested compounds against AChE and BChE were measured according to Ellman et al.. Enzyme-catalysed hydrolysis of ATCHh was carried out at 25 °C in 0.1 M phosphate buffer (pH 8.0) containing 0.25 U AChE, 1 mM ATCHh as substrates, and 0.1 mM of DTNB. In experiments with BuChE, 0.1 M phosphate buffer (pH 7.0) and BuTChh as a substrate were used. […]
pIC50: −log10 of the molar value.
In this section we review reported pIC50 values for a set of molecules.

MOLECULE | SYSTEM | pIC50
CC[N+](CC)(CCCCCn1c(=O)ccn(CCCCCCn2c(C)cc(=O)n(C)c2=O)c1=O)Cc1ccccc1C#N [2d] | human AChE (Homo sapiens, UniProt P22303) | 9.30
CC[N+](CC)(CCCCCn1c(=O)ccn(CCCn2c(C)cc(=O)n(C)c2=O)c1=O)Cc1ccccc1C#N [2a] | human AChE (Homo sapiens, UniProt P22303) | 9.52
CC[N+](CC)(CCCCCn1c(=O)ccn(CCCCCn2c(C)cc(=O)n(C)c2=O)c1=O)Cc1ccccc1C#N [2c] | human AChE (Homo sapiens, UniProt P22303) | 9.70

----------
In this section we review reported pIC50 values for a set of compounds.
- SYSTEM: human AChE (Homo sapiens)
- Construct: purchased Sigma-Aldrich
- ASSAY DETAILS: In vitro cholinesterase inhibition (Ellman), AChE
- Assay type: biochemical
- CONDITION PARAMETERS: Table 2; human AChE; read-out: IC50 AChE
- Experimental: Inhibitory activities of the tested compounds against AChE and BChE were measured according to Ellman et al.. Enzyme-catalysed hydrolysis of ATCHh was carried out at 25 °C in 0.1 M phosphate buffer (pH 8.0) containing 0.25 U AChE, 1 mM ATCHh as substrates, and 0.1 mM of DTNB. In experiments with BuChE, 0.1 M phosphate buffer (pH 7.0) and BuTChh as a substrate were used. […]
pIC50: −log10 of the molar value.

CPD SMILES | pIC50
CCN(CCCCCn1c(=O)ccn(CCCCn2c(C)cc(=O)n(C)c2=O)c1=O)Cc1ccccc1C#N | 8.10
CCN(CCCCCn1c(=O)ccn(CCCCCCn2c(C)cc(=O)n(C)c2=O)c1=O)Cc1ccccc1C#N | 8.27
CCN(CCCCCn1c(=O)ccn(CCCn2c(C)cc(=O)n(C)c2=O)c1=O)Cc1ccccc1C#N | 8.21
